- Study target: dAsCas12a WT (Acidaminococcus sp., UniProt U2UMQ6 1-1307, D908A;E993A;D1235A)
- Protocol summary: Spec-seq (native PAGE EMSA with sequencing of bound and unbound); 25 mM Tris-HCl pH 7.4, 150 mM KCl, 5 mM MgCl2, 10% glycerol, 1 mM DTT, 40 ng/uL salmon sperm DNA; 400 nM Cas12a, 480 nM crRNA, 50 nM library, 37 C 1 h; native P; high values mean tight binding
# maps each entry to its binding signal
Just the number please, in lnKA, no unit attached.

{"columns": ["Binder", "Measurement unit", "Observed result"],
 "data": [
  ["TGTC (dsDNA) DNA 1: GCTATCTAGTGCTCAGTACGCACTGTGTCAGGAAACTTCTGGCAGGACCAGGTCATGAGATCGGAAGAGCACACGTCTGAACTCCAGTCA DNA 2: TGACTGGAGTTCAGACGTGTGCTCTTCCGATCTCATGACCTGGTCCTGCCAGAAGTTTCCTGACACAGTGCGTACTGAGCACTAGATAGC RNA: AAUUUCUACUCUUGUAGAUAGGAAACUUCUGGCAGGACC", "lnKA", -8.93],
  ["GTTC (dsDNA) DNA 1: GCTATCTAGTGCTCAGTACGCACTGGTTCAGGAAACTTCTGGCAGGACCAGGTCATGAGATCGGAAGAGCACACGTCTGAACTCCAGTCA DNA 2: TGACTGGAGTTCAGACGTGTGCTCTTCCGATCTCATGACCTGGTCCTGCCAGAAGTTTCCTGAACCAGTGCGTACTGAGCACTAGATAGC RNA: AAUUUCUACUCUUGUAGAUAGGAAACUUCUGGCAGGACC", "lnKA", -7.08]
]}

Moving on to the next binder.
Documented binding signal of TTAC (dsDNA) DNA 1: GCTATCTAGTGCTCAGTACGCACTGTTACAGGAAACTTCTGGCAGGACCAGGTCATGAGATCGGAAGAGCACACGTCTGAACTCCAGTCA DNA 2: TGACTGGAGTTCAGACGTGTGCTCTTCCGATCTCATGACCTGGTCCTGCCAGAAGTTTCCTGTAACAGTGCGTACTGAGCACTAGATAGC RNA: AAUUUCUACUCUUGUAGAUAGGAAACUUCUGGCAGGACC : -8.99

Origin of measurements: paper PMC8222333
